For each entry below, report its melting point value.
Structures can show the parent of a compound that is named as a salt.

Below: 3 compounds and their reported melting point.
• Clc1ccc(Sc2ccc(CNC3=NCCN3)cc2)cc1 (as salt: hydrochloride) = 127 to 130 °C
• COc1ccc(Sc2ccc(NC(=N)N)cc2)cc1 = 140 to 141 °C
• COc1ccc(Sc2ccc(NC3=NCCN3)cc2)cc1 (as salt: hydrochloride) = 149 to 150 °C

Below: the item to evaluate.
// melting point lookup, compound = Clc1ccc(Sc2ccc(NC3=NCCCC3)cc2)cc1 (as salt: hydrochloride) , result: 148 to 152 °C
